molecular target: Mu-type opioid receptor (Homo sapiens); assay: Agonist activity at human MOR expressed in CHOK1 cells assessed as […] of cAMP accumulation incubated for 45 mins by HTRF assay relative to DAMGO; type: functional, cell-based
Sequence (P35372 whole entry): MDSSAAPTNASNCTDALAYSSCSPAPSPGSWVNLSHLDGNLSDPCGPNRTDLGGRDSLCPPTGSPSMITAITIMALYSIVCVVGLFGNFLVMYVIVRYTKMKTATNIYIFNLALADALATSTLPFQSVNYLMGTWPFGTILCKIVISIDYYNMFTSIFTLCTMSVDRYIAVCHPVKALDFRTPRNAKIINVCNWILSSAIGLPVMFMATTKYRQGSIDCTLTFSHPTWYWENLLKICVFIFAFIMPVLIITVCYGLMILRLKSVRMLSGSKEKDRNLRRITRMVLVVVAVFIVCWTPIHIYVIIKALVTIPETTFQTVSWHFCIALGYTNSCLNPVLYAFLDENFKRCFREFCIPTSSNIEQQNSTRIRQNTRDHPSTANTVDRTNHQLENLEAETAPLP
Readings of Emax for the listed compounds
property.label: Emax (%)

| compound | property.label | endpoint.result |
| --- | --- | --- |
| C[C@H]1OC2(CCN(CCc3ccccc3)CC2)CN(c2ccccc2)C1=O | Emax | 95 |
| O=C1COC2(CCN(Cc3ccccc3)CC2)CN1c1ccccc1 | Emax | 74 |
| CC1OC2(CCN(CCc3ccccc3)CC2)CN(c2cccc(C(F)(F)F)n2)C1=O (stereo not given) | Emax | 91 |
| CC1OC2(CCN(CCc3ccccc3)CC2)CN(c2ccccc2F)C1=O (stereo not given) | Emax | 94 |
| CC1OC2(CCN(CCc3ccccc3)CC2)CN(c2ccccc2Cl)C1=O (stereo not given) | Emax | 96 |
| CC1OC2(CCN(CCc3ccccc3F)CC2)CN(c2ccccc2)C1=O (stereo not given) | Emax | 95 |
| CC1OC2(CCN(CCc3ccccc3)CC2)CN(c2ncccc2F)C1=O (stereo not given) | Emax | 90 |
| O=C1C(CO)OC2(CCN(CCc3ccccc3)CC2)CN1c1ccccc1 (stereo not given) | Emax | 88 |
| CC1OC2(CCN(CCc3ccccc3)CC2)CN(c2cnccn2)C1=O (stereo not given) | Emax | 55 |
| CC1OC2(CCN(CCc3ccccc3)CC2)CN(c2cccnc2C(F)(F)F)C1=O (stereo not given) | Emax | 87 |
| COC(=O)CC1OC2(CCN(CCc3ccccc3)CC2)CN(c2ccccc2)C1=O (stereo not given) | Emax | 85 |
| O=C1N(c2ccccc2)CC2(CCN(CCc3ccccc3)CC2)OC12CC2 | Emax | 93 |
| CC(C)C1OC2(CCN(CCc3ccccc3)CC2)CN(c2ccccc2)C1=O (stereo not given) | Emax | 96 |
| CC1OC2(CCN(CCc3ccncc3)CC2)CN(c2ccccc2)C1=O (stereo not given) | Emax | 81 |
| COCC1OC2(CCN(CCc3ccccc3)CC2)CN(c2ccccc2)C1=O (stereo not given) | Emax | 90 |
| CC(=O)Nc1cccc(CCN2CCC3(CC2)CN(c2ccccc2)C(=O)C(C)O3)c1 (racemic) | Emax | 96 |
| CC(=O)Nc1ccccc1CCN1CCC2(CC1)CN(c1ccccc1)C(=O)C(C)O2 (stereo not given) | Emax | 95 |
| CC1OC2(CCN(CCc3ccccn3)CC2)CN(c2cnccc2C(F)(F)F)C1=O (stereo not given) | Emax | 93 |
| COc1ccccc1N1CC2(CCN(CCc3ccccc3)CC2)OC(C)C1=O (stereo not given) | Emax | 81 |
| CCC1OC2(CCN(CCc3ccccc3)CC2)CN(c2ccccc2)C1=O (stereo not given) | Emax | 99 |
